Test system: Enterococcus faecalis
procedure_summary: Antibacterial activity against Enterococcus faecalis ATCC 29212 assessed as bacterial growth inhibition incubated for 18 hrs by broth microdilution method
Assay type: functional
reported_endpoint: MIC (µg/mL)
Numbers only, in µg/mL.

• CCCCCCCCCCC(=O)N[C@@H](CCN)C(=O)N[C@H](C(=O)N[C@@H](CCN)C(=O)N[C@H](Cc1ccccc1)C(=O)N[C@@H](CC(C)C)C(=O)N[C@@H](CCN)C(=O)N[C@@H](C(=O)N[C@@H](CC(C)C)C(=O)N[C@H](C(N)=O)[C@@H](C)O)C(C)C)[C@@H](C)CC = 8

Now for another entry.
input: Dear colleague, I am looking for the recorded MIC of the following compound: `CC[C@H](C)[C@@H]1NC(=O)[C@H](CCN)NC(=O)C[C@@H](C(C)C)OC(=O)[C@H]([C@@H](C)O)NC(=O)[C@H](CC(C)C)NC(=O)[C@@H](C(C)C)NC(=O)[C@H](CCN)NC(=O)[C@H](CC(C)C)NC(=O)[C@@H](Cc2ccccc2)NC(=O)[C@H](CCN)NC1=O`
output: 16

----------
Test system: Staphylococcus aureus
procedure_summary: Antibacterial activity against Staphylococcus aureus ATCC 25923 assessed as fold increase in MIC in presence of NaCl
Type: functional
Where a SMILES comes first, the peptide text is derived from it. Bridges are numbered along the chain shown (N, C = ends). [ ]: non-standard residue; d: D form. The star is where a group is joined. Heptanoyl(6-Me) = CC(C)CCCCC(=O)*; Dab = NCC[C@H](N)C(=O)O
reported_endpoint: fold change (FC)

* CCCCCCCC(=O)N[C@@H](CCN)C(=O)N[C@H](C(=O)N[C@@H](CCN)C(=O)N[C@H](Cc1ccccc1)C(=O)N[C@@H](CC(C)C)C(=O)N[C@@H](CCN)C(=O)N[C@@H](C(=O)N[C@@H](CC(C)C)C(=O)N[C@@H](Cc1ccc(O)cc1)C(N)=O)C(C)C)[C@@H](C)CC | <=2
* CC[C@H](C)[C@@H]1NC(=O)[C@H](CCN)NC(=O)C[C@@H](C(C)C)OC(=O)[C@H]([C@@H](C)O)NC(=O)[C@H](CC(C)C)NC(=O)[C@@H](C(C)C)NC(=O)[C@H](CCN)NC(=O)[C@H](CC(C)C)NC(=O)[C@@H](Cc2ccccc2)NC(=O)[C@H](CCN)NC1=O | <=2
* CCCCCCC(=O)N[C@@H](CCN)C(=O)N[C@H](C(=O)N[C@@H](CCN)C(=O)N[C@H](Cc1ccccc1)C(=O)N[C@@H](CC(C)C)C(=O)N[C@@H](CCN)C(=O)N[C@@H](C(=O)N[C@@H](CC(C)C)C(=O)N[C@@H](Cc1ccc(O)cc1)C(N)=O)C(C)C)[C@@H](C)CC | <=2
* CC(C)CCCCC(=O)N[C@@H](CCN)C(=O)N[C@H](C(=O)N[C@@H](CCN)C(=O)N[C@H]1CCNC(=O)[C@H]([C@@H](C)O)NC(=O)[C@H](CCN)NC(=O)[C@H](CCN)NC(=O)[C@H](CC(C)C)NC(=O)[C@@H](Cc2ccccc2)NC(=O)[C@H](CCN)NC1=O)[C@@H](C)O ({Heptanoyl(6-Me)}-[Dab]T[Dab][Dab][Dab][dF]L[Dab][Dab]T; lactam 4-C) | 4
